Hey, just so you know, these numbers are from ChEMBL document CHEMBL4765350.

# Test name: AUC in C57BL/6 mouse at 10 mg/kg, ip by LC-MS/MS analysis
# Type: ADME, organism-based
# Set-up: dose 10 mg/kg
# Protocol conditions: in vivo
Measurement type: AUC (ng·h/mL)
Give just the numeric value; ng·h/mL need not be written.

Need AUC, item CCCS(=O)(=O)Nc1cc(-c2cc(-c3ccc(N4CCNCC4)cc3)cnc2N)cc(F)c1OC
2920

###

# Target of assay: Receptor-interacting serine/threonine-protein kinase 2 (Homo sapiens)
# Sequence (O43353 whole entry): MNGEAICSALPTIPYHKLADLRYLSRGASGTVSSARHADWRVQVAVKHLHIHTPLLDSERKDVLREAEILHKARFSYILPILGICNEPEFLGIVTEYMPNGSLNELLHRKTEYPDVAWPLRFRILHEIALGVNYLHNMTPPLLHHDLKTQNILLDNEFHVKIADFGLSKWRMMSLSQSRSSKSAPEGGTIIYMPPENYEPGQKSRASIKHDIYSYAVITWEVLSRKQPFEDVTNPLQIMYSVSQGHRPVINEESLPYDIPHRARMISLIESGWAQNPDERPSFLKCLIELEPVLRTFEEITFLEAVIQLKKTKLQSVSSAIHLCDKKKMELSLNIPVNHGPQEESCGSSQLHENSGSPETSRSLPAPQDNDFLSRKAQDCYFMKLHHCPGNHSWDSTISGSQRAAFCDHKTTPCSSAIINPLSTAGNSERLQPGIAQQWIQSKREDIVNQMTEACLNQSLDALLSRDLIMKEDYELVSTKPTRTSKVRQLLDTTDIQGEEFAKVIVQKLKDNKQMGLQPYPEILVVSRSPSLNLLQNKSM
# Test name: Inhibition of recombinant human RIPK2 incubated for 2 hr by ADP-Glo assay
Measurement type: log10 of IC50 (log10 of the value in nM)
Units before log transform: nM; reported quantity: IC50; transform: log10.

Solved entries (count: 3):
Smiles data: COc1cc(NS(C)(=O)=O)cc(-c2cc(-c3ccc(N4CCNCC4)cc3)cnc2N)c1
Target of assay: Receptor-interacting serine/threonine-protein kinase 2 (Homo sapiens)
Meas value: 1.71

Smiles data: CCCS(=O)(=O)Nc1cc(-c2cc(-c3ccc(N4CCNCC4)cc3)cnc2N)ccc1C
Target of assay: Receptor-interacting serine/threonine-protein kinase 2 (Homo sapiens)
Meas value: 2.01

Smiles data: CCCS(=O)(=O)Nc1cc(OC)cc(-c2cc(-c3ccc(N4CCNCC4)cc3)cnc2C)c1
Target of assay: Receptor-interacting serine/threonine-protein kinase 2 (Homo sapiens)
Meas value: 2.21

# input compound: CCCS(=O)(=O)Nc1cc(OC)cc(-c2cc(-c3ccc(N4CCNCC4)cc3)cnc2N)c1 ; wanted: its log10 of IC50
1.15

Requested read-out: log10 of IC50. Entry: CCCS(=O)(=O)Nc1cc(-c2cc(-c3ccc(S(C)(=O)=O)cc3)cnc2N)ccc1OC
2.42

I am curious: what log10 of IC50 value has been reported for COc1cc(NS(=O)(=O)c2ccccc2)cc(-c2cc(-c3ccc(N4CCNCC4)cc3)cnc2N)c1 ?
1.36

Suppose we examine the compound CCCS(=O)(=O)NCc1cc(-c2cc(-c3ccc(N4CCNCC4)cc3)cnc2N)ccc1OC ; what log10 of IC50 value has been reported?
2.00
